- Test system: 966289-007-R4-J1-PDC complex spheroid viability;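 further: spheroids exposed to the agents for seven days before readout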
- Assay comment: Anticancer human tumor 966289-007-R4-J1-PDC patient-derived pancreatic adenocarcinoma cell line growth inhibition [GQUAD]
- Condition context: second compound 0.1 µM; first compound 1 µM; active compounds read low
// classify: if (viability, T/C < 30%) True else False

Example entries begin here.
CCCS(=O)(=O)Nc1ccc(F)c(C(=O)c2c[nH]c3ncc(-c4ccc(Cl)cc4)cc23)c1F + CN(C)c1ccc(Nc2c3ccc(NC(=O)CCN4CCCC4)cc3nc3cc(NC(=O)CCN4CCCC4)ccc23)cc1 :: False
C#Cc1c(F)ccc2cc(O)cc(-c3ncc4c(N5CC6CCC(C5)N6)nc(OCC56CCCN5CC(F)C6)nc4c3F)c12 (centres undefined) + Cc1cnc(CNC(=O)c2c(=O)c3ccc(N4CCCN(C)CC4)nc3n3c2sc2ccccc23)cn1 :: False
C=CC(=O)N1CCN(c2nc(=O)n(-c3c(C)ccnc3C(C)C)c3nc(-c4c(O)cccc4F)c(F)cc23)C(C)C1 (centres undefined) + Cc1cnc(CNC(=O)c2c(=O)c3ccc(N4CCCN(C)CC4)nc3n3c2sc2ccccc23)cn1 :: False
C=CCn1c(=O)c2cnc(Nc3ccc(N4CCN(C)CC4)cc3)nc2n1-c1cccc(C(C)(C)O)n1 + Cc1[nH]c2ccc(F)cc2c1-c1nc2c3cccnc3c3ncccc3c2[nH]1 :: False
CC1COCCN1c1cc(C2(O)CC3CCC(C2)O3)c2cnn(-c3ccn[nH]3)c2n1 (centres undefined) + CN(C)c1ccc(Nc2c3ccc(NC(=O)CCN4CCCC4)cc3nc3cc(NC(=O)CCN4CCCC4)ccc23)cc1 :: True

Enquiry: Please indicate whether the reported viability, T/C of O=c1[nH]cc(F)c(=O)[nH]1 + CN(C)c1ccc(Nc2c3ccc(NC(=O)CCN4CCCC4)cc3nc3cc(NC(=O)CCN4CCCC4)ccc23)cc1 is strictly below 30%.
Return: True

Enquiry: Please indicate whether the reported viability, T/C of COc1ccc([C@@H](O)c2cc(-c3ncnc4cc(N5CCOCC5)ccc34)c(F)cc2Cl)nn1 + Cc1[nH]c2ccc(F)cc2c1-c1nc2c3cccnc3c3ncccc3c2[nH]1 is strictly below 30%.
Return: False

Enquiry: Please indicate whether the reported viability, T/C of Cc1cccc(N(C)C(=O)C2C(O)CCN2c2nc(C)cc(C(F)(F)F)c2C#N)c1 (centres undefined) + CN(C)c1ccc(Nc2c3ccc(NC(=O)CCN4CCCC4)cc3nc3cc(NC(=O)CCN4CCCC4)ccc23)cc1 is strictly below 30%.
Return: False

Enquiry: Please indicate whether the reported viability, T/C of CC(=O)O[C@H]1C(=O)[C@@]2(C)[C@H]([C@H](OC(=O)c3ccccc3)[C@]3(O)C[C@H](OC(=O)[C@H](O)[C@@H](NC(=O)c4ccccc4)c4ccccc4)C(C)=C1C3(C)C)[C@]1(OC(C)=O)CO[C@@H]1C[C@@H]2O + CN(C)c1ccc(Nc2c3ccc(NC(=O)CCN4CCCC4)cc3nc3cc(NC(=O)CCN4CCCC4)ccc23)cc1 is strictly below 30%.
Return: True
